src = patent US20180099931A1

Biological target: F508delCFTR (Homo sapiens, UniProt P13569, DEL508-508)
Construct: expressed in transfected cells; host or cells: CFBE41o- human lung-derived epithelial cells (CFBE4lo-F508delCFTR-HRP), doxycycline-inducible
Sequence (P13569 with tags, fused parts or gaps DEL508-508): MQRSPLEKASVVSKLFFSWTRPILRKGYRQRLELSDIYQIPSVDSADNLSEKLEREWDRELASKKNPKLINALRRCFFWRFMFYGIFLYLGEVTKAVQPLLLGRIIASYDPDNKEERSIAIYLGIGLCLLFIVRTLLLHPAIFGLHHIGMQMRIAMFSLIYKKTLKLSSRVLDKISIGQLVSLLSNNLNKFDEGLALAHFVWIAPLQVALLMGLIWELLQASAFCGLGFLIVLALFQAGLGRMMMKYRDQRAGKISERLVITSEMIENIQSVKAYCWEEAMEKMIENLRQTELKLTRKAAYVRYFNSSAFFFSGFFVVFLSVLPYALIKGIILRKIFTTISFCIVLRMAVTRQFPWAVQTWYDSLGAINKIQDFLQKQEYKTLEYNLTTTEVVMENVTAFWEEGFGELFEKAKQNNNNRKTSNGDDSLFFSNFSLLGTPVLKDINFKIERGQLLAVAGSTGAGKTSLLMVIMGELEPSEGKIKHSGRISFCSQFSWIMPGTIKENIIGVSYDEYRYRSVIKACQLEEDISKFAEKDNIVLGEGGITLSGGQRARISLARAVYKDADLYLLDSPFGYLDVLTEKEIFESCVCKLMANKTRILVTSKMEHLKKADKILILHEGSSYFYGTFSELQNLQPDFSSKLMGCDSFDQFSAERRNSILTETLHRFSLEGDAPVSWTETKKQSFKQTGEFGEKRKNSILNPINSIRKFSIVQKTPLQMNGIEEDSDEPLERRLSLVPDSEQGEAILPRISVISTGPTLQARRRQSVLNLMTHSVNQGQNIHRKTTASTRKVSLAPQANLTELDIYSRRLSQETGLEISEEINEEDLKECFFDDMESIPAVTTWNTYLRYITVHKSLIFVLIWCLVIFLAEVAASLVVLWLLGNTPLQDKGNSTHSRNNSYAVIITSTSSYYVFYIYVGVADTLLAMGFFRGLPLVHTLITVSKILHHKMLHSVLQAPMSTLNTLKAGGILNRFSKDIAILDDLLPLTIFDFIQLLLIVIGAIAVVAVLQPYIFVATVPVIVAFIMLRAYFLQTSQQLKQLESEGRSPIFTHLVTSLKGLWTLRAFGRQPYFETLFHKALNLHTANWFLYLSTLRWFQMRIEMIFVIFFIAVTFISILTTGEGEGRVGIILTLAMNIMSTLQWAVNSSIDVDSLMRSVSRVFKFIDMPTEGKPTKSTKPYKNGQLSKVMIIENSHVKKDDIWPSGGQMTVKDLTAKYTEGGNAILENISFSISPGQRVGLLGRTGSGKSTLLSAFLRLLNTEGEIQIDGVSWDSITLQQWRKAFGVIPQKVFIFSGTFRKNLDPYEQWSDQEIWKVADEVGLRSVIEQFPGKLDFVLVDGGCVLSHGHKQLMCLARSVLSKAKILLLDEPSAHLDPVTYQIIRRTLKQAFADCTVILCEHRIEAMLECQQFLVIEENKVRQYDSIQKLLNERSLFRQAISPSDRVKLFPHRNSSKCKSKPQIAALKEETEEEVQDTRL
Experiment: Cell Surface Expression-Horse Radish Peroxidase (CSE-HRP) Assay;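 for Maximum % activity (without co-corrector): percent of the 2 µM on-plate positive control corrector response above DMSO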
Assay type: cell-based
Details: test compound without co-corrector; maximum at any tested concentration, normalized to on-plate positive control; read-out: Maximum % activity (without co-corrector)
// reported Emax for each item listed

Example cases with answers are listed next.
compound	Emax
CCCCCOC(=O)N1[C@H](C(=O)O)[C@@H](C(C)(C)C)[C@H](NCc2cc(C(C)(C)C)ccc2OC)[C@@H]1c1ccccc1	> 200%
COc1ncc(C(F)(F)F)cc1CN[C@H]1[C@H](C(C)(C)C)[C@@H](C(=O)O)N(C(=O)C2CC(C)CC(C)C2)[C@H]1c1ccccc1 (stereo partly drawn)	100 to 200%
COc1cc2ccccc2cc1CN[C@@H]1[C@H](C(C)(C)C)[C@@H](C(=O)O)N(C(=O)OC(C)C)[C@H]1c1ccccc1	100 to 200%
CC(C)(C)[C@H]1[C@H](NCc2ccc(C#N)cc2F)[C@H](c2ccccc2)N(C(=O)C2CCCCC2)[C@@H]1C(=O)O	< 100%
CC(C)(C)[C@H]1[C@H](Nc2nc(Nc3ccccc3)ccc2C#N)[C@H](c2ccccc2)N(C(=O)C2CCCCC2)[C@@H]1C(=O)O	< 100%

Exam item: Give the reported value of Emax for this record: O=C(O)[C@@H]1N(C(=O)C2CCCCC2)[C@H](c2ccccc2)[C@H](NCc2ccccc2OC(F)F)C12CC2 (racemic)
Marked response: < 100%

----------
Target: F508delCFTR (Homo sapiens, UniProt P13569, DEL508-508)
Construct: expressed in transfected cells; host or cells: CFBE41o- human lung-derived epithelial cells (CFBE4lo-F508delCFTR-HRP), doxycycline-inducible
Test: Cell Surface Expression-Horse Radish Peroxidase (CSE-HRP) Assay
Format: cell-based
Conditions: with co-corrector (2 μM of 3-[(2R,4R)-4-({[1-(2,2-difluoro-1,3-benzodioxol-5-yl)cyclopropyl]carbonyl}amino)-7-methoxy-3,4-dihydro-2H-chromen-2-yl]benzoic acid); read-out: EC50 (with co-corrector)
measured_metric: EC50

compound	EC50
COc1ncc(C(F)(F)F)cc1N[C@H]1[C@H](C(C)(C)C)[C@@H](C(=O)O)N(C(=O)[C@H]2CCCCO2)[C@H]1c1cccnc1N(C)C [III-213]	> 10 µM

Exam item: Give the reported value of EC50 for this record: COc1ncc(C(F)(F)F)cc1CN[C@H]1[C@H](C23CC(C2)C3)[C@@H](C(=O)O)N(C(=O)C2CCCCC2)[C@H]1c1ccccc1 [Example 57]
Marked response: < 1 µM

Exam item: Give the reported value of EC50 for this record: COc1ccc(C2(C)CCC2)cc1CN[C@H]1[C@H](C(C)(C)C)[C@@H](C(=O)O)N(C(=O)[C@@H]2CCCCO2)[C@H]1c1cccnc1N(C)C [Example 60]
Marked response: 1 to 10 µM

----------
// reported Emax for each item listed
Biological target: F508delCFTR (Homo sapiens, UniProt P13569, DEL508-508)
Construct: expressed in transfected cells; host or cells: CFBE41o- human lung-derived epithelial cells (CFBE4lo-F508delCFTR-HRP), doxycycline-inducible
Assay: Cell Surface Expression-Horse Radish Peroxidase (CSE-HRP) Assay;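 for Maximum % activity (without co-corrector): percent of the 2 µM on-plate positive control corrector response above DMSO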
Format: cell-based
Details: CSE-HRP; without co-corrector; maximum at any tested concentration, normalized to on-plate positive control; read-out: Maximum % activity (without co-corrector)

Example cases with answers are listed next.
compound	Emax
COc1ncc(C2CCC2)cc1CN[C@H]1[C@H](C(C)(C)C)[C@@H](C(=O)O)N(C(=O)[C@@H]2CCC[C@H](C(F)(F)F)C2)[C@H]1c1ccccc1 (relative stereo)	100 to 200%
COc1ncc(C2CCC2)cc1CN[C@H]1[C@H](C(C)(C)C)[C@@H](C(=O)O)N(C(=O)C2CCCCC2)[C@H]1c1cccc2c1OC(C)(C)C2	> 200%
COc1cc2c(cc1CN[C@H]1[C@H](C(C)(C)C)[C@@H](C(=O)O)N(C(=O)OC(C)C)[C@H]1c1cccnc1N(C)C)C(C)(C)CCC2(C)C	100 to 200%
COc1ccc(Cl)cc1CN[C@@H]1[C@@H](C(C)(C)C)[C@H](C(=O)O)N(C(=O)C2COCCO2)[C@@H]1c1ccccc1 (mixture of isomers)	< 100%

Exam item: Give the reported value of Emax for this record: COc1ccc(C(C)(C)C)cc1CN[C@H]1[C@H](C(C)(C)C)[C@@H](C(=O)O)N(C(=O)C2COC(C(C)C)OC2)[C@H]1c1ccccc1 (stereo partly drawn)
Marked response: 100 to 200%

Exam item: Give the reported value of Emax for this record: COc1ncc(N2CCCC2)cc1CN[C@H]1[C@H](C(C)(C)C)[C@@H](C(=O)O)N(C(=O)C2CCCCC2)[C@H]1c1ccccc1
Marked response: 100 to 200%

Exam item: Give the reported value of Emax for this record: COc1ccc(C(F)(F)F)cc1CN[C@H]1[C@H](C(C)(C)C)[C@@H](C(=O)O)N(C(=O)[C@@H]2CCCCO2)[C@H]1c1ccccc1Br
Marked response: > 200%

----------
Target: F508delCFTR (Homo sapiens, UniProt P13569, DEL508-508)
Construct: expressed in transfected cells; host or cells: CFBE41o- human lung-derived epithelial cells (CFBE4lo-F508delCFTR-HRP), doxycycline-inducible
Test: Cell Surface Expression-Horse Radish Peroxidase (CSE-HRP) Assay;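 for Maximum % activity (without co-corrector): percent of the 2 µM on-plate positive control corrector response above DMSO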
Format: cell-based
Settings: test compound without co-corrector; maximum at any tested concentration, normalized to on-plate positive control; read-out: Maximum % activity (without co-corrector)
measured_metric: Emax

Example cases with answers are listed next.
compound	target_or_system	Emax
Cc1cc(C(F)(F)F)cc(N[C@@H]2[C@@H](C(C)(C)C)[C@H](C(=O)NS(=O)(=O)C3CC3)N(C(=O)C3CCCCC3)[C@@H]2c2ccccc2)n1 (racemic)	F508delCFTR (Homo sapiens, UniProt P13569, DEL508-508)	< 100%
COc1ccc(Cl)cc1CN[C@@H]1[C@@H](C(C)(C)C)[C@H](C(=O)O)N(C(=O)C2CCCCC2)[C@@H]1c1ccccc1 (racemic)	F508delCFTR (Homo sapiens, UniProt P13569, DEL508-508)	> 200%
COc1ccc(C(C)(C)C)cc1CN[C@H]1[C@H](C(C)(C)C)[C@@H](C(=O)O)N(C(=O)c2ccc(OC3CCOCC3)cc2)[C@H]1c1cccnc1N(C)C	F508delCFTR (Homo sapiens, UniProt P13569, DEL508-508)	> 200%
COc1ccc(C(F)(F)F)cc1CN[C@@H]1[C@@H](C(C)(C)C)[C@H](C(=O)O)N(C(=O)C2CCCCC2)[C@@H]1c1cccnc1N(C)C (racemic)	F508delCFTR (Homo sapiens, UniProt P13569, DEL508-508)	100 to 200%
COc1ccc(C(C)(C)C)cc1CN[C@H]1[C@H](C(C)(C)C)[C@@H](C(=O)O)N(C(=O)C2CCN(C(=O)C3CC3)CC2)[C@H]1c1ccccc1	F508delCFTR (Homo sapiens, UniProt P13569, DEL508-508)	> 200%

Consider the additional compound presented here.
Exam item: Give the reported value of Emax for this record: COc1ccc(C23CC(C2)C3)cc1CN[C@H]1[C@H](C(C)(C)C)[C@@H](C(=O)O)N(C(=O)C2CCCCC2)[C@H]1c1ccccc1OC
Marked response: 100 to 200%

----------
Biological target: F508delCFTR (Homo sapiens, UniProt P13569, DEL508-508)
Construct: expressed in transfected cells; host or cells: CFBE41o- human lung-derived epithelial cells (CFBE4lo-F508delCFTR-HRP), doxycycline-inducible
Experiment: Cell Surface Expression-Horse Radish Peroxidase (CSE-HRP) Assay;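 for Maximum % activity (with co-corrector): co-corrector and positive control are both the same reference corrector at 2 µM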
Format: cell-based
Conditions: CSE-HRP; with co-corrector (2 μM); maximum at any tested concentration, normalized to on-plate positive control
measured_metric: Maximum % activity (with co-corrector)

Example cases with answers are listed next.
compound	Maximum % activity (with co-corrector)
COc1ncc(C2CCC2)cc1CN[C@H]1[C@H](C(C)(C)C)[C@@H](C(=O)O)N(C(=O)C2CCC2)[C@H]1c1ccccc1C(F)(F)F	++ (≥150 and <350)
COc1cc(C(C)(C)C)ccc1CN[C@H]1[C@H](C(C)(C)C)[C@@H](C(=O)O)N(C(=O)C2CCCCC2)[C@H]1c1cccnc1N(C)C	+++ (≥350)
COc1ccc(C(C)(C)C)cc1CN[C@H]1[C@H](C(C)(C)C)[C@@H](C(=O)O)N(C(=O)C(C)CC(F)(F)F)[C@H]1c1ccccc1 (stereo partly drawn)	+++ (≥350)
COc1cc2c(cc1CN[C@H]1[C@H](C(C)(C)C)[C@@H](C(=O)O)N(C(=O)OC(C)C)[C@H]1c1cccnc1N(C)C)C(C)(C)CCC2(C)C	+++ (≥350)
COc1ccc(C(C)(C)C)cc1CN[C@H]1[C@H](C(C)(C)C)[C@@H](C(=O)O)N(C(=O)Cc2cccc(F)c2)[C@H]1c1ccccc1	+++ (≥350)

Exam item: Give the reported value of Maximum % activity (with co-corrector) for this record: COc1ccc(-c2cnn(C3CCC3)c2)cc1CN[C@H]1[C@H](C(C)(C)C)[C@@H](C(=O)O)N(C(=O)C2CCCCC2)[C@H]1c1ccccc1
Marked response: ++ (≥150 and <350)
